The reported numbers originate from patent US20240390512A1.

assayed.system: T1, human CDH6 (full-length and EC domain deletion mutants) (Homo sapiens, UniProt P55285, DEL384-486)
T1 construct: each one of the five EC domains could be deleted from full-length human CDH6; 3xFLAG (deletion mutants only, from the vector p3×FLAG-CMV-9); expressed in transfected cells; host or cells: 293α cells
T1 sequence (P55285 with tags, fused parts or gaps DEL384-486): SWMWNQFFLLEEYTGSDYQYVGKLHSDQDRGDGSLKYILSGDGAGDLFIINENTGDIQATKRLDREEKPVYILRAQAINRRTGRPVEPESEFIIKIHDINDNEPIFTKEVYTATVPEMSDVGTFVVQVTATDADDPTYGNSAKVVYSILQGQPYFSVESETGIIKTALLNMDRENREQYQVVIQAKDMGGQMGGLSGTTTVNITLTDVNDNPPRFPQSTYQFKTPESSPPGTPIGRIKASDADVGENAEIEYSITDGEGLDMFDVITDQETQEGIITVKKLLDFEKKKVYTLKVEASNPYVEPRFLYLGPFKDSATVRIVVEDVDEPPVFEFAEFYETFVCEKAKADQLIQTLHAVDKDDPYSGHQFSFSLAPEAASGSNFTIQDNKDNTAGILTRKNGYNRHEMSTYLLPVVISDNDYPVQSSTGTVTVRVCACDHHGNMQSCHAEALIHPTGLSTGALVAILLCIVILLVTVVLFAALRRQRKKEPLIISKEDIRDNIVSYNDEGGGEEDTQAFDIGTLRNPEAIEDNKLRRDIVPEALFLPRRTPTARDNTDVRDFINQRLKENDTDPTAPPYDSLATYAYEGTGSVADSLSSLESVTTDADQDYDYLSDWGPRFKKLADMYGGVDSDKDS
test.summary: Epitope analysis of rat anti-CDH6 antibody by flow cytometry using domain deletion mutants
Type: binding
experimental.conditions: flow cytometry; transfected 293α cells; antibody 20 nM
experimental.readout: binding to EC4 deletion mutant

IN: Entry rG061: rat anti-human CDH6 monoclonal antibody produced by hybridoma rG061; variable regions SEQ ID NO: 40 and 45 (antibody, listed as Rattus norvegicus, V domains shown) VL: DVQMTQSPSYLAASPGESVSISCKATKSISNYLAWYQQKPGEAYKVLIYSGSTLQSGTPSRFSGSGSGTDFTLTIRSLEPEDFGLYSCQQYYEKPLTFGSGTKLEIKRA VH: EVQLQESGPGLVKPSQSLSLTCSVTGYSITTYYWGWIRKFPGNKMEWMGYISYSGRTSYNPSLKSRMSITRDASKNQFFLQLNSVTTDDTATYYCARSPINHGGYWYFDFWGPGTMVTVSS has what binding to EC4 deletion mutant?
OUT: bind
